B1: glmS ribozyme (parent)
chain: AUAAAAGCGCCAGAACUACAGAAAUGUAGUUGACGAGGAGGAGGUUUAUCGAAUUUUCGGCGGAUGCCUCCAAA

# Variants of: B1
# run-description: self-cleavage kobs at 10000 uM GlcN6P; higher = faster cleavage; RNA array
# test-context: with glucosamine-6-phosphate
Variants at the floor of the assay were thinned out.
Let's look at some variants and their measured self-cleavage kobs at 10000 uM GlcN6P.

Field: example entries. Status: answers known.
>  <chain>
AUAAAAGCGCCAGAACUACAGAAAUGUAGAUGACGAGGAGGAGGUUUAUCGAAUUUUCGGCGGGUGCCUCCAAA

>  <self-cleavage kobs at 10000 uM GlcN6P>
0.00607 s⁻¹

$$$$
>  <chain>
AUAAAAGCGCCAGAACUACAUAAAUGUAGUUGACGAGGAGGAGGUUUAUCGAAUUUUCGGCGGAUGCCUCCAAA

>  <self-cleavage kobs at 10000 uM GlcN6P>
0.059 s⁻¹

$$$$
>  <chain>
AUAAAGGCGCCAGAACUACAGAAAUGUAGUUGACGAAGAGAAGGUUUAUCGAAUUUUCGGCGGAUGCCUCCAAA

>  <self-cleavage kobs at 10000 uM GlcN6P>
< 1e-05 s⁻¹

$$$$
>  <chain>
AUAAAAGCGCGAGAACUACAGAAAUGUAGUUGACGAGGAGGAGGUUUCUCGAAUUUUCGGCGGAUGCCUCCAAA

>  <self-cleavage kobs at 10000 uM GlcN6P>
< 1e-05 s⁻¹

$$$$
>  <chain>
AUAAAAGCGCCAGAAUUACAGAAAUGUAGUUGACGAGGAGCAGGUUUAUCGAAUUUUCGGCGGAUGCCUCCAAA

>  <self-cleavage kobs at 10000 uM GlcN6P>
0.000246 s⁻¹

$$$$
>  <chain>
AUAAAAGCGCCAGAACUACAGAAAUGUAGUUGACGAGGAGGAGGUUUAUCCUAUUUUCGGCGGAUGCCUCCAAA

>  <self-cleavage kobs at 10000 uM GlcN6P>
< 1e-05 s⁻¹

$$$$
>  <chain>
AUAAAAGCGCCAGAACUACAGAAAUGUAGUUGACGAGGAUGAGGUUUAUCGGAUUUUCGGCGGAUGCCUCCAAA

>  <self-cleavage kobs at 10000 uM GlcN6P>
0.000206 s⁻¹

$$$$
>  <chain>
AUAAAGGCGCCAGAACUACAGAAAUGUAGUUGACGAGGAGGUGGUUUAUCGAAUUUUCGGCGGGUGCCUCCAAA

>  <self-cleavage kobs at 10000 uM GlcN6P>
< 1e-05 s⁻¹

$$$$

Please report the recorded self-cleavage kobs at 10000 uM GlcN6P for AUAAAAGCGCCAGAGCUACAGAAAUGUAGUUGACGAGGAGGAGGUUUAUGGAAUUUUCGGCGGAUGCUUCCAAA . 0.000154 s⁻¹

May I ask what self-cleavage kobs at 10000 uM GlcN6P has been recorded for AUAAAAGCGCCAGUACUACAGAAAUGUAGUUGACGAGGAGGAGGUUUAUCGAAUUUUCAGCGGAUGCCUCCAAA ? 3.03e-05 s⁻¹

Please give the measured self-cleavage kobs at 10000 uM GlcN6P for this variant: AUAAAAGCGCCAGAACUACAGAAAUGUAGUUGACGGGGAGGAGGUUUAUCUAAUUUUCGGCGGAUGCCUCCAAA < 1e-05 s⁻¹

FYI, the data here is from the supplement of paper PMC7125110.
